Where these numbers come from: patent US5118599A

assay: pKa Measurements; format: physicochemical; details: Table 1
METRIC_NAME: pKa

MOLECULE: CCC(C)(C)c1ccc(OCCCC(=O)Nc2ccc(Cl)c(NC(=O)C(Oc3ccc(S(=O)(=O)c4ccc(OCc5ccccc5)cc4)cc3)C(=O)C(C)(C)C)c2)c(C(C)(C)CC)c1 (stereo not drawn) [P-III, reference compound]
VALUE_MEASURED: 8.76
//
MOLECULE: CCC(C)(C)c1ccc(OCCCC(=O)Nc2ccc(Cl)c(NC(=O)C(Oc3ccc(S(=O)(=O)c4ccc(OCc5ccccc5)cc4)cc3)C(=O)C3(C)COCOC3)c2)c(C(C)(C)CC)c1 [Coupler D-11]
VALUE_MEASURED: 7.24
//
MOLECULE: CCC(C)(C)c1ccc(OCCCC(=O)Nc2ccc(Cl)c(NC(=O)CC(=O)C(C)(C)C)c2)c(C(C)(C)CC)c1 [P-VI, reference compound]
VALUE_MEASURED: 10.01
//
MOLECULE: CCC(C)(C)c1ccc(OCCCC(=O)Nc2ccc(Cl)c(NC(=O)C(Oc3ccc(S(=O)(=O)c4ccc(O)cc4)cc3)C(=O)C3(C)COCOC3)c2)c(C(C)(C)CC)c1 [Coupler D-10]
VALUE_MEASURED: 7.55
//
MOLECULE: CCC(C)(C)c1ccc(OCCCC(=O)Nc2ccc(Cl)c(NC(=O)CC(=O)C3(C)COC(C)(C)OC3)c2)c(C(C)(C)CC)c1 [Coupler D-0]
VALUE_MEASURED: 8.51
//
MOLECULE: CCCCCCCCCCCCCCCCS(=O)(=O)Nc1ccc(Cl)c(NC(=O)CC(=O)C2(C)COCOC2)c1 [Coupler D-4]
VALUE_MEASURED: 8.42

====

assay: Photographic single layer element: Dmax, Dmin, gamma and λmax after color development; conditions: Table 4, color developer pH 10.0
METRIC_NAME: λmax (nm)

COMPOUND: CCC(C)(C)c1ccc(OCCCC(=O)Nc2ccc(C)c(NC(=O)C(Oc3ccc(S(=O)(=O)c4ccc(O)cc4)cc3)C(=O)C3(C)COCOC3)c2)c(C(C)(C)CC)c1 [Coupler D-13]
VALUE_MEASURED: 452

COMPOUND: CCCCCCCCCCCCCCCCS(=O)(=O)Nc1ccc(Cl)c(NC(=O)CC(=O)C(C)(C)C)c1 [P-V, reference compound]
VALUE_MEASURED: 449

COMPOUND: CCC(C)(C)c1ccc(OCCCC(=O)Nc2ccc(Cl)c(NC(=O)C(Oc3ccc(S(=O)(=O)c4ccc(O)cc4)cc3)C(=O)C3(C)COCOC3)c2)c(C(C)(C)CC)c1 [Coupler D-10]
VALUE_MEASURED: 453

COMPOUND: CCC(C)(C)c1ccc(OCCCC(=O)Nc2cccc(NC(=O)C(Oc3ccc(S(=O)(=O)c4ccc(O)cc4)cc3)C(=O)C3(C)COCOC3)c2)c(C(C)(C)CC)c1 [Coupler D-12]
VALUE_MEASURED: 454

COMPOUND: CCC(C)(C)c1ccc(OCCCC(=O)Nc2ccc(OC)c(NC(=O)CC(=O)C3(C)COCOC3)c2)c(C(C)(C)CC)c1 [Coupler D-3]
VALUE_MEASURED: 446

COMPOUND: CCC(C)(C)c1ccc(OCCCC(=O)Nc2ccc(OC)c(NC(=O)C(Oc3ccc(S(=O)(=O)c4ccc(O)cc4)cc3)C(=O)C3(C)COC(C)(C)OC3)c2)c(C(C)(C)CC)c1 [Coupler D-7]
VALUE_MEASURED: 445

COMPOUND: CCC(C)(C)c1ccc(OCCCC(=O)Nc2ccc(OC)c(NC(=O)C(Oc3ccc(S(=O)(=O)c4ccc(O)cc4)cc3)C(=O)C3(C)COCOC3)c2)c(C(C)(C)CC)c1 [Coupler D-14]
VALUE_MEASURED: 448

COMPOUND: CCC(C)(C)c1ccc(OCCCC(=O)Nc2ccc(Cl)c(NC(=O)CC(=O)C(C)(C)C)c2)c(C(C)(C)CC)c1 [P-VI, reference compound]
VALUE_MEASURED: 447

COMPOUND: CCOC1C(=O)N(C(C(=O)Nc2cc(NC(=O)CCCOc3ccc(C(C)(C)CC)cc3C(C)(C)CC)ccc2OC)C(=O)C2(C)COC(C)(C)OC2)C(=O)N1Cc1ccccc1 [Coupler D-8]
VALUE_MEASURED: 445

COMPOUND: CCCCCCCCCCCCCCCCS(=O)(=O)Nc1ccc(Cl)c(NC(=O)CC(=O)C2(C)COCOC2)c1 [Coupler D-4]
VALUE_MEASURED: 454

COMPOUND: CCC(C)(C)c1ccc(OCCCC(=O)Nc2ccc(Cl)c(NC(=O)C(Oc3ccc(S(=O)(=O)c4ccc(OCc5ccccc5)cc4)cc3)C(=O)C(C)(C)C)c2)c(C(C)(C)CC)c1 (stereo not shown) [P-III, reference compound]
VALUE_MEASURED: 450

COMPOUND: CCCCCCCCCCCCCCCCS(=O)(=O)Nc1ccc(Cl)c(NC(=O)C(Oc2ccc(S(=O)(=O)c3ccc(OCc4ccccc4)cc3)cc2)C(=O)C(C)(C)C)c1 (stereo not shown) [P-I, reference compound]
VALUE_MEASURED: 452

COMPOUND: CCC(C)(C)c1ccc(OCCCC(=O)Nc2ccc(Cl)c(NC(=O)CC(=O)C3(C)COCOC3)c2)c(C(C)(C)CC)c1 [Coupler D-5]
VALUE_MEASURED: 452
